Where do the numbers come from? From ChEMBL document CHEMBL1201862.

Please go through the items and note down their GI50.
Test system: HL-60
method notes: NCI tumour cell line growth inhibition, 48 h
Calls of active or inactive are those of the source. No stated cut-off is given here; in the data, active = GI50 up to about 1.1 µM and inactive = higher.

Q: Value lookup for GI50; key = `O=C(/C=C\c1ccccc1)Oc1ccc(/C=C2\CCCCC2=O)cc1`
Result: 14.9 µM (inactive)

Q: Value lookup for GI50; key = `CC(=O)NNc1nc(C)c(C(/C=C/c2ccccc2O)=N/N=C(N)N)s1`
Result: > 100 µM (inactive)

Q: Value lookup for GI50; key = `COc1ccc(OCC(=N/NC(=O)c2ccncc2)/N=C/c2cccnc2)cc1`
Result: > 100 µM (inactive)

Q: Value lookup for GI50; key = `COc1ccc(-c2cc(=O)c3c(O)c(OC)c(O)cc3o2)cc1O`
Result: 1.25 µM (inactive)

Q: Value lookup for GI50; key = O=C(CC1(O)C(=O)Nc2c(Cl)ccc(Cl)c21)c1ccco1 (configuration not stated)
Result: 14.7 µM (inactive)

Q: Value lookup for GI50; key = c1ccc2c3c([nH]c2c1)C1C2CCCCN2C(c2ccncc2)N1CC3 (configuration not stated)
Result: 21.5 µM (inactive)

Q: Value lookup for GI50; key = `CCOC(=O)C(=CNC(=S)Nc1c(CC)cccc1CC)C(=O)OCC`
Result: > 100 µM (inactive)

---

Test system: SR
method notes: NCI tumour cell line growth inhibition, 48 h
Calls of active or inactive are those of the source. Rule as the data show it: active = GI50 up to about 1.1 µM and inactive = higher.
parameter: GI50

Q: Value lookup for GI50; key = `O=c1c2cc(Cl)ccc2sc2cccc(Cl)c12`
Result: > 100 µM (inactive)

Q: Value lookup for GI50; key = `O=C1c2scc(-c3ccc(Cl)cc3)c2-n2cccc21`
Result: 2.84 µM (inactive)

Q: Value lookup for GI50; key = `C=CCc1cc(C=C(C#N)C#N)cc(OC)c1O`
Result: 42.7 µM (inactive)

Q: Value lookup for GI50; key = `NNC(=O)CC(=O)Nc1ccccc1Cl`
Result: > 100 µM (inactive)

Q: Value lookup for GI50; key = `N/C(=N\N/C=C1\C=Nc2cc(C(F)(F)F)ccc2C1=O)NO`
Result: > 10 µM (inactive)

---

Test system: UACC-257
method notes: NCI tumour cell line growth inhibition, 48 h
Activity calls are given as the source filed them. No stated cut-off is given here; in the data, active = GI50 up to about 1.1 µM and inactive = higher.
parameter: GI50

Q: Checklist item: GI50 tested on UACC-257, entry `O=c1[nH]c2cc([N+](=O)[O-])c(Nc3c4ccccc4nc4ccccc34)c([N+](=O)[O-])c2[nH]1` , value?
Result: 4.03 µM (inactive)

Q: Checklist item: GI50 tested on UACC-257, entry `CC[C@H]1CC(=O)c2c(cc3c(c2O)C(=O)c2ccccc2C3=O)[C@@]1(C#N)C(=O)OC(C)(C)C` , value?
Result: 2.07 µM (inactive)

Q: Checklist item: GI50 tested on UACC-257, entry CC(NC(=O)C1(N)CCCC1)C(=O)O (stereo unspecified) , value?
Result: > 100 µM (inactive)

Q: Checklist item: GI50 tested on UACC-257, entry `O=S(=O)(c1ccc(-c2nnc(-c3ccc(F)cc3)o2)cc1)c1ccc(-c2nnc(-c3ccc(F)cc3)o2)cc1` , value?
Result: > 100 µM (inactive)

Q: Checklist item: GI50 tested on UACC-257, entry `COc1ccc(O)c(/C=N\Nc2ccccc2)c1` , value?
Result: 16.7 µM (inactive)

Q: Checklist item: GI50 tested on UACC-257, entry `Cn1c2ccccc2c2c(-c3ccccc3)[n+]3ccccc3nc21` , value?
Result: 18.4 µM (inactive)

Q: Checklist item: GI50 tested on UACC-257, entry `O=C(O)CSCC(=O)O` , value?
Result: > 100 µM (inactive)

Q: Checklist item: GI50 tested on UACC-257, entry O=C(CC1(O)C(=O)Nc2c(Cl)ccc(Cl)c21)c1ccco1 (stereo unspecified) , value?
Result: 18 µM (inactive)

Q: Checklist item: GI50 tested on UACC-257, entry `O=C(N/C=C1\C(=O)Oc2ccccc2C1=O)Nc1ccccc1` , value?
Result: 91.2 µM (inactive)

Q: Checklist item: GI50 tested on UACC-257, entry `N#Cc1c2ccc([N+](=O)[O-])cc2c(=O)n2c1sc1ccc(C(F)(F)F)cc12` , value?
Result: > 100 µM (inactive)

Q: Checklist item: GI50 tested on UACC-257, entry CCCCCCCCC/C=C1\CCC(CN2CCOCC2)C1=O (stereo unspecified) , value?
Result: 3.99 µM (inactive)

---

Tested on: OVCAR-8
method notes: NCI tumour cell line growth inhibition, 48 h
The source made the active and inactive calls. Cut-off read from the data, not from the text of the source: active = GI50 up to about 1.1 µM and inactive = higher.
Parameter call: string, one of 1 (yes) for active, 0 (no) for inactive

Q: Outcome logged for `CC[C@H]1CC(=O)c2c(cc3c(c2O)C(=O)c2ccccc2C3=O)[C@@]1(C#N)C(=O)OC(C)(C)C` in this assay:
Result: 0 (no)

Q: Outcome logged for NCC1OC(OC2C(N)CC(N)C(O)C2OC2OC(CO)C(O)C2O)C(N)C(O)C1O (stereo not drawn) in this assay:
Result: 0 (no)

Q: Outcome logged for `CC(C)C(OC(=O)c1ccc(NCC2=CC(=O)C=CC2=O)cc1)C(C)C` in this assay:
Result: 0 (no)

Q: Outcome logged for `CC[C@]1(O)C(=O)OCc2c1cc1n(c2=O)Cc2cc3c(N)cccc3nc2-1` in this assay:
Result: 0 (no)

Q: Outcome logged for `CCOC(=O)C(C(=O)OCC)=C1SC(=N\c2ccccc2)/C(=N/c2ccccc2)N1c1ccccc1` in this assay:
Result: 0 (no)

Q: Outcome logged for `COc1ccc(-c2coc3cc(O)ccc3c2=O)cc1` in this assay:
Result: 0 (no)

Q: Outcome logged for `COC(=O)NCCc1n[nH]c2c1C(=O)C=C(OC)C2=O` in this assay:
Result: 0 (no)

Q: Outcome logged for `O=C1c2cc([N+](=O)[O-])sc2C(=O)c2c([N+](=O)[O-])csc21` in this assay:
Result: 1 (yes)

Q: Outcome logged for COc1cc(C2SCC(=O)N2NC(=O)c2ccc(NC(C)=O)cc2OC)ccc1O (stereo not drawn) in this assay:
Result: 0 (no)

Q: Outcome logged for `O=C(/C=C\c1ccccc1)Oc1ccc(/C=C2\CCCCC2=O)cc1` in this assay:
Result: 0 (no)

Q: Outcome logged for CC1=CCC23C(C1)OC(Br)(C=CC2(C)O)C3(C)C (stereo not drawn) in this assay:
Result: 0 (no)

Q: Outcome logged for COC(=O)/C(=N/NC(N)=O)C(C(=O)C(=O)Nc1ccc(C)cc1)c1nc2ccc(C(=O)c3ccccc3)cc2nc1O (stereo not drawn) in this assay:
Result: 0 (no)

Q: Outcome logged for `BrCc1ccc2ccc3ccc(CBr)nc3c2n1` in this assay:
Result: 0 (no)

---

Please go through the items and note down their GI50.
Test system: SK-MEL-2
method notes: NCI tumour cell line growth inhibition, 48 h
Activity calls are given as the source filed them. No stated cut-off is given here; in the data, active = GI50 up to about 1.1 µM and inactive = higher.

Q: Value lookup for GI50; key = `c1ccc2c(c1)Nc1c3ccccc3nc3cccc-2c13`
Result: 1.6 µM (inactive)

Q: Value lookup for GI50; key = CCN1C2=NC(=O)N(C)C(=O)C2(Cl)C(C(SC)S(=O)(=O)c2ccc(C)cc2)c2ccccc21 (centres undefined)
Result: 55.3 µM (inactive)

Q: Value lookup for GI50; key = `C=CCc1cc(C=C(C#N)C#N)cc(OC)c1O`
Result: > 100 µM (inactive)

Q: Value lookup for GI50; key = COC(=O)/C(=N/NC(N)=O)C(C(=O)C(=O)Nc1ccc(C)cc1)c1nc2ccc(C(=O)c3ccccc3)cc2nc1O (centres undefined)
Result: > 100 µM (inactive)

Q: Value lookup for GI50; key = `CCOC(=O)C(=CN1CCNC1=S)C(=O)OCC`
Result: > 100 µM (inactive)

Q: Value lookup for GI50; key = CC1CC2=C(S(=O)(=O)c3ccccc3)CC(S(=O)(=O)c3ccccc3)(S(=O)(=O)c3ccccc3)CC21 (centres undefined)
Result: > 100 µM (inactive)

Q: Value lookup for GI50; key = `CCOC(=O)Nc1ccc(S(=O)(=O)OC)cc1.CCOC(=O)Nc1ccc(S(=O)(=O)OC)cc1.NNC(=O)c1ccncc1`
Result: > 50 µM (inactive)

Q: Value lookup for GI50; key = COc1cc2c(cc1O)-c1c(OC)c(O)cc3c1C(C2)N(C)CC3 (centres undefined)
Result: > 100 µM (inactive)

Q: Value lookup for GI50; key = `O=C(O)c1c(Br)c(Br)c(Br)c(Br)c1C1c2ccc(O)cc2Oc2cc(O)ccc21`
Result: > 100 µM (inactive)

---

System: DLD-1
method notes: NCI tumour cell line growth inhibition, 48 h
Active and inactive are the calls of the source. No stated cut-off is given here; in the data, active = GI50 up to about 1.1 µM and inactive = higher.
Please go through the items and note down their GI50.

Q: Checklist item: GI50 tested on DLD-1, entry COc1ccc2[nH]cc(CCNC(=O)[C@](O)(Cc3cn(C)c4ccccc34)[C@@]3(O)OCC(O)C3O)c2c1 (stereo not given in full) , value?
Result: > 100 µM (inactive)

Q: Checklist item: GI50 tested on DLD-1, entry `CC[C@]1(O)C(=O)OCc2c1cc1n(c2=O)Cc2cc3c(N)cccc3nc2-1` , value?
Result: > 100 µM (inactive)

Q: Checklist item: GI50 tested on DLD-1, entry `C(=C\c1c2oc(-c3ccccc3)cc(-c3ccccc3)c-2c2ccccc12)/C=C1\c2ccccc2-c2c(-c3ccccc3)cc(-c3ccccc3)[o+]c21.[O-][Cl+3]([O-])([O-])[O-]` , value?
Result: > 100 µM (inactive)

Q: Checklist item: GI50 tested on DLD-1, entry COC(=O)C1C=CCON2CCc3c(n(S(=O)(=O)c4ccccc4)c4ccccc34)C12 (stereo not given) , value?
Result: 10.7 µM (inactive)

Q: Checklist item: GI50 tested on DLD-1, entry CCOC(=O)C1CCn2c(nc3c2c(=O)n(C)c(=O)n3C)S1 (stereo not given) , value?
Result: > 100 µM (inactive)

Q: Checklist item: GI50 tested on DLD-1, entry Cc1cc(C)c(C(=O)C(C)C(c2ccccc2)c2ccc(Cl)cc2)c(C)c1 (stereo not given) , value?
Result: > 100 µM (inactive)

Q: Checklist item: GI50 tested on DLD-1, entry `CC(C)C(=O)/C=C/c1ccc(Cl)c(Cl)c1` , value?
Result: 14.6 µM (inactive)

Q: Checklist item: GI50 tested on DLD-1, entry `O=C(Cc1ccc(F)cc1)NC1=C(Cl)C(=O)c2ccccc2C1=O` , value?
Result: 2.18 µM (inactive)

Q: Checklist item: GI50 tested on DLD-1, entry Oc1ccc2c(c1)OCC1(O)Cc3cc(O)c(O)cc3C21 (stereo not given) , value?
Result: 17.3 µM (inactive)

Q: Checklist item: GI50 tested on DLD-1, entry `CCn1c(C)nc([N+](=O)[O-])c1Sc1ncc[nH]1` , value?
Result: 30.5 µM (inactive)
